Documented IC50 across a set of compounds
- Assay Text: Antiinflammatory activity in human neutrophils assessed as inhibition of fMLP/CB-induced elastase release after 5 mins by spectrophotometric analysis
- Assay type: functional, cell-based
- Test Context: Neutrophil

Below: 4 compounds and their reported IC50.
[
  {
    "Compound": "CC(C)CCC[C@](C)(O)c1ccc(C(=O)O)cc1O",
    "Recorded Value": "> 10 µg/mL"
  },
  {
    "Compound": "C/C(=C\\CCC(C)CO)c1ccc(CO)cc1O (stereo not given)",
    "Recorded Value": "> 10 µg/mL"
  },
  {
    "Compound": "COC(=O)c1cccc2oc3cc(CO)cc(O)c3c(=O)c12",
    "Recorded Value": "> 10 µg/mL"
  },
  {
    "Compound": "C/C(=C\\CCC(C)C)c1ccc(CO)cc1O",
    "Recorded Value": "8.8 µM"
  }
]

Given COC(=O)[C@@H]1c2c(oc3cc(CO)cc(O)c3c2=O)C=C[C@H]1O , respond with its IC50.
6.6 µM

Given Cc1cc(O)cc(Oc2cc(C)cc(O)c2)c1 , respond with its IC50.
> 10 µg/mL

Given CO[C@@](C)(CCCC(C)C)c1ccc(CO)cc1O [(7S)-(+)-7-O-METHYLSYDONOL] , respond with its IC50.
> 10 µg/mL
